Molecular target: Tyrosine-protein phosphatase non-receptor type 1 (Homo sapiens)
Sequence (P18031 whole entry): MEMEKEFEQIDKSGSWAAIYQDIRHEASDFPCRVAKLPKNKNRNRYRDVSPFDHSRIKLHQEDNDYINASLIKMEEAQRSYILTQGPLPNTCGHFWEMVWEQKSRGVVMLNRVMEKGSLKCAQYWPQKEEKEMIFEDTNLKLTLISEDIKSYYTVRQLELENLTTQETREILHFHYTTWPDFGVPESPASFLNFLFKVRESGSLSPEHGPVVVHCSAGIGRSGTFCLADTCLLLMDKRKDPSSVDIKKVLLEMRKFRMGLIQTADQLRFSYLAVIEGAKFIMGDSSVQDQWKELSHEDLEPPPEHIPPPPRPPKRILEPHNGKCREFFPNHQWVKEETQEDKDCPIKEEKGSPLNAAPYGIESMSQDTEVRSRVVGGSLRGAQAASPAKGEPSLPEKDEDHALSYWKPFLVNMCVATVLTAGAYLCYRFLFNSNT
Test: Inhibition of human recombinant PTP1B
Readout: IC50 (µM)
Report only the number, with the unit µM understood.

Q: Give me measured IC50, please, for this molecule: `O=C(c1ccc(O)cc1)c1oc2ccccc2c1-c1ccc(-c2ccc(O)cc2)cc1`
Ans: 1.08

* * *

Kindly state inhibition for each of the entries shown.
Target: Low molecular weight phosphotyrosine protein phosphatase (Homo sapiens) (UniProt P24666)
Sequence (whole entry): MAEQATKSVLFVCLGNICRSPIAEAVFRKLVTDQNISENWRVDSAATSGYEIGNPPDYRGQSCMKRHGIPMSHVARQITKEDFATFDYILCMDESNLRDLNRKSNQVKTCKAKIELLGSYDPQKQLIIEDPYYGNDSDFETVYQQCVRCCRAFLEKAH
Test: Inhibition of human cloned LMW-PTP isoform 2 expressed in Escherichia coli TB1 at 20 uM
Report only the number, with the unit % understood.

Q: Give me measured inhibition, please, for this compound: `O=c1cc(-c2ccc(O)cc2)oc2cc(O)c(O)cc12`
Ans: 10

Q: Give me measured inhibition, please, for this compound: `O=C(O)c1ccc(-c2ccccc2)cc1O`
Ans: 0

Q: Give me measured inhibition, please, for this compound: `O=C(O)c1ccc(-c2cccc(Cc3c(-c4ccc(O)cc4)oc4cc(O)ccc4c3=O)c2)cc1O`
Ans: 10

Q: Give me measured inhibition, please, for this compound: `Oc1ccc(-c2ccccc2)cc1O`
Ans: 0

Q: Give me measured inhibition, please, for this compound: `Oc1ccc(-c2ccccc2)c(O)c1`
Ans: 0

Q: Give me measured inhibition, please, for this compound: `O=c1c(Cc2cccc(-c3ccc(O)c(O)c3)c2)c(-c2ccc(O)cc2)oc2cc(O)ccc12`
Ans: 25

Where these numbers come from: ChEMBL document CHEMBL1153398
